Tested on: MCF7
EXPERIMENT: Antiproliferative activity against human MCF7 cells after 96 hrs by SRB method
Assay type: functional, cell-based
EXPERIMENTAL CONTEXT: MCF7, 96 h
Please note: IC50 exactly at 3 nM is Not satisfied. Only values below 3 nM get Satisfied.

Identify whether the compound `C=C/C=C\[C@H](C)[C@H](OC(=O)NCCCNC(=O)c1ccc(C2(C(F)(F)F)N=N2)cc1)[C@@H](C)[C@H](O)[C@@H](C)C/C(C)=C\[C@H](C)[C@@H](O)[C@@H](C)/C=C\[C@@H](O)C[C@@H]1OC(=O)[C@H](C)[C@@H](O)[C@H]1C` records IC50 below 3 nM. Satisfied

Lab log: compare recorded IC50 with 3 nM; is it strictly lower for `C=C/C=C\[C@H](C)[C@H](OC(=O)NCCCNC(=O)c1ccc(N=[N+]=[N-])cc1)[C@@H](C)[C@H](O)[C@@H](C)C/C(C)=C\[C@H](C)[C@@H](O)[C@@H](C)/C=C\[C@@H](O)C[C@@H]1OC(=O)[C@H](C)[C@@H](O)[C@H]1C` ? Satisfied

Here's an entry: C=C/C=C\[C@H](C)[C@H](OC(N)=O)[C@@H](C)[C@H](O)[C@@H](C)C/C(C)=C\[C@H](C)[C@@H](O)[C@@H](C)/C=C\[C@@H](O)C[C@@H]1OC(=O)[C@H](C)[C@@H](O)[C@H]1C [DISERMOLIDE] . Is its IC50 below 3 nM? Not satisfied

Given CC(=O)O[C@H]1C(=O)[C@@]2(C)[C@H]([C@H](OC(=O)c3ccccc3)[C@]3(O)C[C@H](OC(=O)[C@H](O)[C@@H](NC(=O)c4ccccc4)c4ccccc4)C(C)=C1C3(C)C)[C@]1(OC(C)=O)CO[C@@H]1C[C@@H]2O [PACLITAXEL] , is recorded IC50 strictly lower than 3 nM? Satisfied

I'd appreciate it if you could check whether `C=C/C=C\[C@H](C)[C@H](OC(=O)NCCNC(=O)c1ccc(N=[N+]=[N-])cc1)[C@@H](C)[C@H](O)[C@@H](C)C/C(C)=C\[C@H](C)[C@@H](O)[C@@H](C)/C=C\[C@@H](O)C[C@@H]1OC(=O)[C@H](C)[C@@H](O)[C@H]1C` has IC50 smaller than 3 nM. Not satisfied

Find out if reported IC50 for `C=C/C=C\[C@H](C)[C@H](OC(=O)NCCCCNC(=O)c1ccc(N=[N+]=[N-])cc1)[C@@H](C)[C@H](O)[C@@H](C)C/C(C)=C\[C@H](C)[C@@H](O)[C@@H](C)/C=C\[C@@H](O)C[C@@H]1OC(=O)[C@H](C)[C@@H](O)[C@H]1C` is less than 3 nM Satisfied

Confirm or reject: IC50 of `C=C/C=C\[C@H](C)[C@H](OC(=O)NCCCNC(=O)c1cccc(N=[N+]=[N-])c1)[C@@H](C)[C@H](O)[C@@H](C)C/C(C)=C\[C@H](C)[C@@H](O)[C@@H](C)/C=C\[C@@H](O)C[C@@H]1OC(=O)[C@H](C)[C@@H](O)[C@H]1C` lies strictly below 3 nM Satisfied
